target: arginase activity in intact BMM-M2 cells (Mus musculus); construct: endogenous in cells; host or cells: bone-marrow derived macrophages from male C57BL/6 mice, polarised to M2 with IL-4; test: Cell-based arginase assay: urea production by cultured BMM-M2 cells; conditions: 10 μM test compound, 24 h, read-out: Inh. urea production @10 μM (%)
Measure Name: inhibition at 10 µM

Please state recorded inhibition at 10 µM (tested on arginase activity in intact BMM-M2 cells (Mus musculus)) of NC(CCCCB(O)O)(C(=O)O)C1CCN(C2CCCc3cc(Cl)ccc32)C1 (centres unmarked)
< 15%

Please state recorded inhibition at 10 µM (tested on arginase activity in intact BMM-M2 cells (Mus musculus)) of CC(c1c(Cl)cccc1Cl)N1CCC(C(N)(CCCCB(O)O)C(=O)O)CC1 (single isomer, unassigned)
> 25%

Please state recorded inhibition at 10 µM (tested on arginase activity in intact BMM-M2 cells (Mus musculus)) of NC(CCCCB(O)O)(C(=O)O)C1CCN(C2CCc3ccc(F)cc32)CC1 (single isomer, unassigned)
> 25%

Please state recorded inhibition at 10 µM (tested on arginase activity in intact BMM-M2 cells (Mus musculus)) of NC(CCCCB(O)O)(C(=O)O)C1CCN(C2CCc3cc(Cl)ccc32)C1 (centres unmarked)
> 25%

Please state recorded inhibition at 10 µM (tested on arginase activity in intact BMM-M2 cells (Mus musculus)) of NC(CCCCB(O)O)(C(=O)O)C1CCN(C2CCCc3cc(-c4ccccc4)ccc32)CC1 (single isomer, unassigned)
> 25%

Please state recorded inhibition at 10 µM (tested on arginase activity in intact BMM-M2 cells (Mus musculus)) of NC(CCCCB(O)O)(C(=O)O)C1CCN(C2CCc3ccc(C(F)(F)F)cc32)CC1 (single isomer, unassigned)
< 15%

Please state recorded inhibition at 10 µM (tested on arginase activity in intact BMM-M2 cells (Mus musculus)) of NC(CCCCB(O)O)(C(=O)O)C1CCN(C2CCc3cc(Cl)ccc32)CC1 (single isomer, unassigned)
> 25%

Please state recorded inhibition at 10 µM (tested on arginase activity in intact BMM-M2 cells (Mus musculus)) of NC(CCCCB(O)O)(C(=O)O)C1CCN(C2CCc3ccccc32)CC1 (centres unmarked) [Compound 1]
> 25%

Please state recorded inhibition at 10 µM (tested on arginase activity in intact BMM-M2 cells (Mus musculus)) of NC(CCCCB(O)O)(C(=O)O)C1CCN(C2CCCCc3ccccc32)CC1 (single isomer, unassigned)
> 25%

----------
Target: arginase activity in intact BMM-M2 cells (Mus musculus, UniProt Q61176)
Construct: endogenous in cells; host or cells: bone-marrow derived macrophages from male C57BL/6 mice, polarised to M2 with IL-4
Sequence (Q61176 1-323): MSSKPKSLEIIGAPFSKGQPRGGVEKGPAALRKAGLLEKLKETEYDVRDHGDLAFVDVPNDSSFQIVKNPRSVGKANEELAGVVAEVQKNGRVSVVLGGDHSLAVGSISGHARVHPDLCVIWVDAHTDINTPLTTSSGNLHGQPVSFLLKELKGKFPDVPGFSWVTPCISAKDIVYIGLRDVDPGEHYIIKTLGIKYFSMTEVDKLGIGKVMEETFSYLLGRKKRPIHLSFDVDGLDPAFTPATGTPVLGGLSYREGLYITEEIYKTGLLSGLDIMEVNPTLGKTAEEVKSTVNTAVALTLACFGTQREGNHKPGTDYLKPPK
Experiment: Cell-based arginase assay: urea production by cultured BMM-M2 cells
Conditions: 10 μM test compound, 24 h, read-out: Inh. urea production @10 μM (%)
Items are presented alongside their recorded inhibition at 10 µM.

Previously resolved entries follow.
{"Compound": "CC(c1c(F)cccc1F)N1CCC(C(N)(CCCCB(O)O)C(=O)O)CC1 (single isomer, unassigned)", "inhibition at 10 µM": "< 15%"}
{"Compound": "NC(CCCCB(O)O)(C(=O)O)C1CCN(C2CCCc3ccccc32)CC1 (single isomer, unassigned) [Compound 4]", "inhibition at 10 µM": "> 25%"}
{"Compound": "CC(c1ccccc1)N1CCC(C(N)(CCCCB(O)O)C(=O)O)CC1 (single isomer, unassigned)", "inhibition at 10 µM": "> 25%"}

Next item in the queue.
I am curious: what inhibition at 10 µM value has been reported for NC(CCCCB(O)O)(C(=O)O)C1CCN(C2CCCc3ccc(F)cc32)CC1 (single isomer, unassigned) ?
> 25%

----------
Molecular target: recombinant human ARG2 (Homo sapiens)
Sequence (P78540 23-354): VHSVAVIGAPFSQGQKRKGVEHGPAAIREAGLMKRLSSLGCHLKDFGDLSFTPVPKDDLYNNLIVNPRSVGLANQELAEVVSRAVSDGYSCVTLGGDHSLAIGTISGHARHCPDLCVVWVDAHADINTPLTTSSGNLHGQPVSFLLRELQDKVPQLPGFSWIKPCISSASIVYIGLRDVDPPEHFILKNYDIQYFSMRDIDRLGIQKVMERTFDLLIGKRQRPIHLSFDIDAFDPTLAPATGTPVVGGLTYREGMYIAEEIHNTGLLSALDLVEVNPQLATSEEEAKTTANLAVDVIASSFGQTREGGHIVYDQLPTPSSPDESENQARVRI
Test: Arginase enzymatic assay in vitro, recombinant human ARG2 (colorimetric urea detection)
Details: recombinant human arginase 2; read-out: IC50 Inh rhARG2
Text: Arginase catalyzes the hydrolysis of L-arginine into L-ornithine and urea. Urea amount produced by this reaction can be detected using a colorimetric assay and used as an indirect measurement of arginase activity. […]
Items are presented alongside their recorded IC50.

{"Molecule": "NC(CCCCB(O)O)(C(=O)O)C1CCN(C2CCCc3cc(-c4ccccc4)ccc32)CC1 (single isomer, unassigned)", "Measure Name": "IC50", "Value Reported": "< 500 nM"}
{"Molecule": "CC1(C)OB(CCCCC(N)(C(=O)O)C2CCN(C3CCCc4ccccc43)CC2)OC1(C)C (stereo not shown)", "Measure Name": "IC50", "Value Reported": "500 to 5000 nM"}
{"Molecule": "NC(CCCCB(O)O)(C(=O)O)C1CCN(C2CCc3cc(C(F)(F)F)ccc32)CC1 (single isomer, unassigned)", "Measure Name": "IC50", "Value Reported": "< 500 nM"}
{"Molecule": "NC(CCCCB(O)O)(C(=O)O)C1CCN(C2CCc3ccccc32)CC1 (single isomer, unassigned) [Compound 3]", "Measure Name": "IC50", "Value Reported": "> 5000 nM"}
{"Molecule": "NC(CCCCB(O)O)(C(=O)O)C1CCN(C2CCCc3cc(Cl)ccc32)C1 (stereo not shown)", "Measure Name": "IC50", "Value Reported": "500 to 5000 nM"}

Next item in the queue.
Please state recorded IC50 (tested on recombinant human ARG2 (Homo sapiens)) of CC(c1ccc(F)c(Cl)c1)N1CCC(C(N)(CCCCB(O)O)C(=O)O)CC1 (single isomer, unassigned)
500 to 5000 nM

----------
Items are presented alongside their recorded IC50.
molecular target: native ARG1 enzyme in lysates of RBC (Homo sapiens, UniProt P05089); construct: native ARG1 enzyme in lysates of RBC; assay: Arginase enzymatic assay in RBC lysates from healthy donors; settings: human red blood cell lysates; read-out: IC50 Inh RBC
Sequence (P05089 whole entry): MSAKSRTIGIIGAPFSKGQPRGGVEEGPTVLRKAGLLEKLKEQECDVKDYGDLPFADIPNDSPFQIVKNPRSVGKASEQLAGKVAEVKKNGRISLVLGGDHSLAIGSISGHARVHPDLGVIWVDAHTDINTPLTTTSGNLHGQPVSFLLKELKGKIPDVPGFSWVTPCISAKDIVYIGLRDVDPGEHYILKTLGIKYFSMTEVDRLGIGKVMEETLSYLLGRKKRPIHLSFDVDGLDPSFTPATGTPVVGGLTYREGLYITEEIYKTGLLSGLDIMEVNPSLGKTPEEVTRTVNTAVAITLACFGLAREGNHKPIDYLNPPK

Previously resolved entries follow.
{"Compound": "NC(CCCCB(O)O)(C(=O)O)C1CCN(C2CCCc3ccccc32)CC1 (single isomer, unassigned) [Compound 6]", "IC50": "> 5000 nM"}
{"Compound": "CC1(C)OB(CCCCC(N)(C(=O)O)C2CCN(C3CCCc4ccccc43)CC2)OC1(C)C (stereo not shown)", "IC50": "< 500 nM"}
{"Compound": "CC(c1ccccc1)N1CCC(C(N)(CCCCB(O)O)C(=O)O)CC1 (single isomer, unassigned) [Compound 10]", "IC50": "< 500 nM"}

Please state recorded IC50 (tested on native ARG1 enzyme in lysates of RBC (Homo sapiens, UniProt P05089)) of NC(CCCCB(O)O)(C(=O)O)C1CCN(C2CCCCc3ccccc32)CC1 (single isomer, unassigned)
< 500 nM

Please state recorded IC50 (tested on native ARG1 enzyme in lysates of RBC (Homo sapiens, UniProt P05089)) of NC(CCCCB(O)O)(C(=O)O)C1CCN(C2CCc3ccccc32)CC1 (single isomer, unassigned) [Compound 2]
< 500 nM

Please state recorded IC50 (tested on native ARG1 enzyme in lysates of RBC (Homo sapiens, UniProt P05089)) of NC(CCCCB(O)O)(C(=O)O)C1CCN(C2CCc3cc(Cl)ccc32)CC1 (single isomer, unassigned)
< 500 nM

Please state recorded IC50 (tested on native ARG1 enzyme in lysates of RBC (Homo sapiens, UniProt P05089)) of NC(CCCCB(O)O)(C(=O)O)C1CCN(C2CCCc3ccccc32)CC1 (single isomer, unassigned) [Compound 5]
< 500 nM

Please state recorded IC50 (tested on native ARG1 enzyme in lysates of RBC (Homo sapiens, UniProt P05089)) of NC(CCCCB(O)O)(C(=O)O)C1CCN(C2CCc3cc(C(F)(F)F)ccc32)CC1 (single isomer, unassigned)
< 500 nM

Please state recorded IC50 (tested on native ARG1 enzyme in lysates of RBC (Homo sapiens, UniProt P05089)) of NC(CCCCB(O)O)(C(=O)O)C1CCN(C2CCCc3ccccc32)CC1 (single isomer, unassigned) [Compound 4]
< 500 nM

Please state recorded IC50 (tested on native ARG1 enzyme in lysates of RBC (Homo sapiens, UniProt P05089)) of CNC(CCCCB(O)O)(C(=O)O)C1CCN(C2CCCc3ccccc32)CC1 (single isomer, unassigned)
< 500 nM

Please state recorded IC50 (tested on native ARG1 enzyme in lysates of RBC (Homo sapiens, UniProt P05089)) of NC(CCCCB(O)O)(C(=O)O)C1CCN(C2CCc3ccccc32)CC1 (stereo not shown) [Compound 1]
< 500 nM

Please state recorded IC50 (tested on native ARG1 enzyme in lysates of RBC (Homo sapiens, UniProt P05089)) of NC(CCCCB(O)O)(C(=O)O)C1CCN(C2CCCc3cc(Cl)ccc32)CC1 (single isomer, unassigned) [Compound 17]
< 500 nM
